- Tested on: DU-145 prostate
- assay.details: NCI tumour cell line growth inhibition, 48 h
reported.property: GI50

Consider the worked cases shown below.
{"mol.smiles": "Cc1nc2cc(O)c(O)cc2cc1Oc1ccc(NC(=O)Nc2ccc(Cl)c(Cl)c2)cc1", "study.system": "DU-145 prostate", "GI50": "7.26 µM"}
{"mol.smiles": "CCN1C(=O)N(c2c(F)c(OC)cc(OC)c2F)Cc2cnc3[nH]c(CN4CCOCC4)cc3c21", "study.system": "DU-145 prostate", "GI50": "1.99 µM"}
{"mol.smiles": "CN(C)CCn1cc(-c2ccc3c(Nc4ccc(CC(=O)Nc5cccc(F)c5)cc4)ncnc3c2)cn1", "study.system": "DU-145 prostate", "GI50": "1.67 µM"}
{"mol.smiles": "COc1ccc(/C=C(/C(=O)N2CCNCC2)c2cc(OC)c(OC)c(OC)c2)cc1O", "study.system": "DU-145 prostate", "GI50": "4.1 µM"}

Exam item: Report GI50 for Cc1ccc(/C=C(\C#N)n2nnc3cc(F)c(F)cc32)cc1
Marked response: 3.32 µM

###

- System: HT29 colon
- assay.details: NCI tumour cell line growth inhibition, 48 h
reported.property: TGI

{"compound": "N#Cc1nn(-c2ccc(Cl)cc2)c(N)c2c(=N)n3nc(-c4ccccc4)cc3nc12", "study.system": "HT29 colon", "reported.property": "TGI", "recorded.value": "> 32.8 µM"}
{"compound": "COc1ccc2cc(C(=O)NCCc3ccccc3)ccc2c1OC", "study.system": "HT29 colon", "reported.property": "TGI", "recorded.value": "> 100 µM"}
{"compound": "Cn1cccc1-c1cc(-c2ccc(Br)cc2)nc(N)c1C#N", "study.system": "HT29 colon", "reported.property": "TGI", "recorded.value": "> 100 µM"}

Exam item: Answer with reported TGI of O=C(NC(=S)NS(=O)(=O)c1ccc(N2N=C3c4ccccc4CC3C2c2cccs2)cc1)c1ccccc1 (centres undefined)
Marked response: > 100 µM

Exam item: Report measured TGI; entry is CC(C)(C)[Si](C)(C)OCC1OC(n2ccc(=O)[nH]c2=O)C(O[Si](C)(C)C(C)(C)C)/C1=N/O (centres undefined)
Marked response: 9.82 µM

Exam item: Identify measured TGI associated with COC(=O)c1ccc(/C=C/C2=CC(=O)C=CC2=O)cc1
Marked response: 48.9 µM

Exam item: Find the measured TGI of O=C(/C=C1\N=C(c2ccccc2)N(c2ccc3c(c2)Sc2cc(N4C(=O)/C(=C/C(=O)/C=C/c5ccccc5)N=C4c4ccccc4)ccc2N3)C1=O)/C=C/c1ccccc1 and report it.
Marked response: > 100 µM

Exam item: Please indicate TGI recorded for C[Si](C)(C)C#C[I+]c1ccccc1
Marked response: > 100 µM

Exam item: # return recorded TGI for entry CCN1C(=O)N(c2c(F)c(OC)cc(OC)c2F)Cc2cnc3[nH]c(CN4CCOCC4)cc3c21
Marked response: > 100 µM

###

- Tested on: 786-0 renal
- assay.details: NCI tumour cell line growth inhibition, 48 h
reported.property: GI50

Exam item: GET GI50 where system = 786-0 renal and item = O=C1NC(=NCCc2ccccc2Cl)S/C1=C\c1ccc2ncccc2c1
Marked response: 7.66 µM

Exam item: Please report GI50 with 786-0 renal for item N#C/C(=C/N1CCN(C(=O)c2ccco2)C1=S)C(N)=O .
Marked response: 18 µM

Exam item: Please respond with reported GI50 (system 786-0 renal) for Cn1cccc1-c1cc(-c2ccc(Br)cc2)nc(N)c1C#N .
Marked response: > 100 µM
